Tested on: guinea pig Muscarinic, Peripheral (Mperiperal) Receptor, Non-selective Binding, gene 100379235
Test: NVS_GPCR_gMPeripheral_NonSelective: NovaScreen (NVS) G Protein-Coupled Receptor Assay for guinea pig Muscarinic, Peripheral (Mperiperal) Receptor, Non-selective Binding (AID 2283250)
Records with an inconclusive call do not appear. Activity calls are given as the source filed them. The calls were made as follows: active = hit-call score of the fitted dose curve at least 0.9, where 1 is the maximum; inconclusive = response in the unintended direction; inactive = score below 0.9.
Mark one answer only. Choices: active, inactive

CCOc1nc(F)cc2nc(S(=O)(=O)Nc3c(Cl)cccc3Cl)nn12; inactive
O=C1C2CC=CCC2C(=O)N1SC(Cl)(Cl)Cl (stereo not given); inactive
Cn1c(-c2ccccc2)cc(-c2ccccc2)[n+]1C; active
COP(=O)(OC)O/C(C)=C/C(=O)N(C)C; inactive

Recorded test call requested for CCCN(CC)CC1COC2(CCC(C(C)(C)C)CC2)O1 (stereo not given)
inactive

====

Read-out: xenobiotic metabolism (CYP1A1), CYP1A1 (gene 1543)
Test: CLD_CYP1A1_6hr: CellzDirect (CLD) Gene Expression Assay for xenobiotic metabolism (CYP1A1) at 6 hours (AID 2283661)
Inconclusive results are not listed. Calls of active or inactive are those of the source. How the source made its calls: active means hit-call score of the fitted dose curve at least 0.9, where 1 is the maximum; inconclusive means response in the unintended direction; inactive means score below 0.9.
Choose one outcome from this list and give only that: 1 = active, -1 = inactive

Reference set, count: 3
Nc1cnn(-c2ccccc2)c(=O)c1Cl; 1
CS(=O)(=O)c1cc(C(F)(F)F)ccc1C(=O)c1cnoc1C1CC1; -1
CCN(CC)c1nc(C)cc(OP(=S)(OC)OC)n1; 1

Given `COP(=O)(OC)O/C(C)=C/C(=O)N(C)C` , state the outcome it received in this test.
-1

Fill in: this test's call for `Nc1c(Cl)c(F)nc(OCC(=O)O)c1Cl` is ___
-1

Hi, sorry to bother you, what did the test record for `N#Cc1c[nH]cc1-c1cccc2c1OC(F)(F)O2` ?
1

Record lookup: outcome of this test for `Cc1nc(N(C)C)nc(OC(=O)N(C)C)c1C` ?
1

====

Test: CEETOX_H295R_DOC: CeeTox H295R High-throughput Steroidogenesis Assay for DOC (AID 2283439)
Settings: actives raise or lower the signal
Activity calls are given as the source filed them. The calls were made as follows: active = hit-call score of the fitted dose curve at least 0.9, where 1 is the maximum; inactive = score below 0.9.
Tick one outcome: 1 (yes) for active, 0 (no) for inactive

Sample answers from the record:
CCCCC(C#N)(Cn1cncn1)c1ccc(Cl)cc1 (stereo unspecified); 1 (yes)
CC(C)Oc1cccc(NC(=O)c2ccccc2C(F)(F)F)c1; 1 (yes)
COC(=O)NC(=S)Nc1ccccc1NC(=S)NC(=O)OC; 0 (no)
CC1(C)CCC(=Cc2ccc(Cl)cc2)C1(O)Cn1cncn1 (stereo unspecified); 1 (yes)
CC(C)(C)C(=O)C(Oc1ccc(Cl)cc1)n1cncn1 (stereo unspecified); 0 (no)

# outcome recorded in this test, key = `COP(=S)(OC)Oc1ccc([N+](=O)[O-])c(C)c1`
1 (yes)

====

Read-out: Pselectin, SELP (gene 6403)
Test: BSK_4H_Pselectin: BioMAP Diversity Plus: 4H Assay for Pselectin Biomarker Activity (AID 2283026)
Details: primary human endothelial cells (HUVEC); actives raise or lower the signal
Calls of active or inactive are those of the source. The calls were made as follows: active = hit-call score of the fitted dose curve at least 0.9, where 1 is the maximum; inactive = score below 0.9.
Please answer using one outcome listed in active, inactive

Check out these entries, answers already filled in.
Cn1c(-c2ccccc2)cc(-c2ccccc2)[n+]1C; inactive
O=C(Nc1ccccc1-c1ccc(Cl)cc1)c1cccnc1Cl; inactive
CC(C)(C)C(=O)C(Oc1ccc(Cl)cc1)n1cncn1 (configuration not stated); inactive
COP(=S)(OC)SCn1nnc2ccccc2c1=O; active

What did the test return for `O=C(O)c1c(Cl)ccc2cc(Cl)cnc12` ?
inactive

Please let me know the test result on file for `CC(C)Nc1nc(Cl)nc(NC(C)C)n1` .
inactive

How did this test come out for `O=P(O)(O)CCCl` ?
inactive
